The following compounds are shown together with reported REP Liver Cyp1b1 mRNA values.
test system: Cyp1b1 mRNA in liver; assay: Cyp1b1 gene expression in liver (real-time PCR); type: in vivo, female C57BL/6 mice; conditions: relative to TCDD; dose metric Syst liver (ng/g lipid)
Answer with a bare number; do not write a unit.

In the examples that follow, each entry is paired with its recorded REP Liver Cyp1b1 mRNA.
>  <compound>
Clc1ccc(-c2cc(Cl)c(Cl)c(Cl)c2Cl)cc1Cl [PCB-156, 2,3,3´,4,4´,5-hexachlorobiphenyl]

>  <observedResult>
0.0003

$$$$
>  <compound>
Clc1cc2c(cc1Cl)Oc1c(cc(Cl)c(Cl)c1Cl)O2 [PeCDD, 1,2,3,7,8-pentachlorodibenzodioxin]

>  <observedResult>
0.2

$$$$
>  <compound>
Clc1cc2oc3c(Cl)c(Cl)c(Cl)cc3c2cc1Cl [Congener 4-PeCDF, 2,3,4,7,8-pentachlorodibenzofuran]

>  <observedResult>
0.01

$$$$

Pending compound:
So what REP Liver Cyp1b1 mRNA did Clc1cc2c(cc1Cl)Oc1cc(Cl)c(Cl)cc1O2 [TCDD, 2,3,7,8-tetrachlorodibenzodioxin, reference compound] get with Cyp1b1 mRNA in liver?
1

* * *

Test system: Cyp1a2 mRNA in liver
Assay: Cyp1a2 gene expression in liver (real-time PCR)
Type: in vivo, female C57BL/6 mice
Details: relative to TCDD; dose metric Syst adipose (ng/g lipid)
Method: Animals. Eight-week-old female C57BL/6 mice (Harlan laboratories, Venray, the Netherlands) were randomly assigned to treatment groups (six animals per group) and allowed to acclimate for 1.5 weeks. […] RNA isolation and quantitative real-time polymerase chain reaction (PCR). […] Purity and concentration of the isolated RNA was determined by measuring the absorbance ratio at 260/280 nm and 230/260 nm with a Nanodrop 2000 spectrophotometer (Thermo Scientific, Asheville, NC, USA). […]
valueKind: REP Liver Cyp1a2 mRNA
Answer with a bare number; do not write a unit.

>  <molecule>
Clc1ccc(-c2cc(Cl)c(Cl)cc2Cl)cc1Cl [PCB-118, 2,3´,4,4´,5-pentachlorobiphenyl]

>  <observedResult>
0.00001

$$$$
>  <molecule>
Clc1ccc(-c2cc(Cl)c(Cl)c(Cl)c2Cl)cc1Cl [PCB-156, 2,3,3´,4,4´,5-hexachlorobiphenyl]

>  <observedResult>
0.00008

$$$$
>  <molecule>
Clc1ccc(-c2cc(Cl)c(Cl)c(Cl)c2)cc1Cl [PCB-126, 3,3´,4,4´,5-pentachlorobiphenyl]

>  <observedResult>
0.01

$$$$
>  <molecule>
Clc1cc2c(cc1Cl)Oc1cc(Cl)c(Cl)cc1O2 [TCDD, 2,3,7,8-tetrachlorodibenzodioxin, reference compound]

>  <observedResult>
1

$$$$
>  <molecule>
Clc1cc2oc3c(Cl)c(Cl)c(Cl)cc3c2cc1Cl [Congener 4-PeCDF, 2,3,4,7,8-pentachlorodibenzofuran]

>  <observedResult>
0.3

$$$$

Pending molecule:
Return reported REP Liver Cyp1a2 mRNA; argument: Clc1cc2c(cc1Cl)Oc1c(cc(Cl)c(Cl)c1Cl)O2 [PeCDD, 1,2,3,7,8-pentachlorodibenzodioxin]
1

* * *

The following compounds are shown together with reported REP Liver EROD activity values.
system: hepatic CYP1A1 activity (ethoxyresorufin-O-deethylase, EROD); assay: Hepatic EROD activity in hepatic microsomal fractions after single oral dose; type: in vivo, female C57BL/6 mice; conditions: relative to TCDD; dose metric Syst adipose (ng/g lipid)
Answer with a bare number; do not write a unit.

In the examples that follow, each entry is paired with its recorded REP Liver EROD activity.
>  <compound>
Clc1ccc(-c2cc(Cl)c(Cl)c(Cl)c2)cc1Cl

>  <REP Liver EROD activity>
0.02

$$$$
>  <compound>
Clc1ccc(-c2cc(Cl)c(Cl)cc2Cl)cc1Cl

>  <REP Liver EROD activity>
0.000003

$$$$
>  <compound>
Clc1cc2c(cc1Cl)Oc1cc(Cl)c(Cl)cc1O2 [TCDD, 2,3,7,8-tetrachlorodibenzodioxin, reference compound]

>  <REP Liver EROD activity>
1

$$$$
>  <compound>
Clc1cc2c(cc1Cl)Oc1c(cc(Cl)c(Cl)c1Cl)O2

>  <REP Liver EROD activity>
1

$$$$

Return reported REP Liver EROD activity; argument: Clc1ccc(-c2cc(Cl)c(Cl)c(Cl)c2Cl)cc1Cl
0.00001

* * *

tested on: hepatic CYP1A1 activity (ethoxyresorufin-O-deethylase, EROD); experiment: Hepatic EROD activity in hepatic microsomal fractions after single oral dose; type: in vivo, female C57BL/6 mice; conditions: relative to TCDD; dose metric Syst plasma (ng/g lipid)
valueKind: REP Liver EROD activity

>  <compound>
Clc1cc2c(cc1Cl)Oc1c(cc(Cl)c(Cl)c1Cl)O2

>  <REP Liver EROD activity>
0.6

$$$$
>  <compound>
Clc1ccc(-c2cc(Cl)c(Cl)cc2Cl)cc1Cl

>  <REP Liver EROD activity>
0.000004

$$$$
>  <compound>
Clc1ccc(-c2cc(Cl)c(Cl)c(Cl)c2)cc1Cl

>  <REP Liver EROD activity>
0.02

$$$$
>  <compound>
Clc1ccc(-c2cc(Cl)c(Cl)c(Cl)c2Cl)cc1Cl

>  <REP Liver EROD activity>
0.00001

$$$$

Pending compound:
Return reported REP Liver EROD activity; argument: Clc1cc2c(cc1Cl)Oc1cc(Cl)c(Cl)cc1O2 [TCDD, 2,3,7,8-tetrachlorodibenzodioxin, reference compound]
1

* * *

The following molecules are shown together with reported liver:adipose ratio (hepatic sequestration criterion 0.3) values.
test: Compound analysis: liver, adipose and plasma concentrations 3 days after a single oral dose; format: in vivo, female C57BL/6 mice; settings: 3 days after single oral dose; Table 1 doses

>  <molecule>
Clc1ccc(-c2cc(Cl)c(Cl)cc2Cl)cc1Cl [PCB-118, 2,3´,4,4´,5-pentachlorobiphenyl]

>  <observedResult>
< 0.3

$$$$

Pending molecule:
Return reported liver:adipose ratio (hepatic sequestration criterion 0.3); argument: Clc1cc2c(cc1Cl)Oc1c(cc(Cl)c(Cl)c1Cl)O2 [PeCDD, 1,2,3,7,8-pentachlorodibenzodioxin]
> 0.3

* * *

assay: Compound analysis: liver, adipose and plasma concentrations 3 days after a single oral dose; format: in vivo, female C57BL/6 mice; settings: female, C57BL/6, mouse, in vivo, po, 0.5 µg/kg bw, oral dose 0.5 µg/kg bw; 3 days after single oral dose; read-out: Adipose concentration
valueKind: concentration at 3 days (ng/g)
Numbers only here, please. The scale is ng/g.

>  <compound>
Clc1cc2c(cc1Cl)Oc1c(cc(Cl)c(Cl)c1Cl)O2

>  <endpointUnit>
ng/g

>  <observedResult>
0.9

$$$$

Return reported concentration at 3 days; argument: Clc1cc2c(cc1Cl)Oc1cc(Cl)c(Cl)cc1O2 [TCDD, 2,3,7,8-tetrachlorodibenzodioxin, reference compound]
1.8

* * *

test system: Cyp1b1 mRNA in liver; experiment: Cyp1b1 gene expression in liver (real-time PCR); type: in vivo, female C57BL/6 mice; conditions: relative to TCDD; dose metric Syst liver (ng/g liver)
valueKind: REP Liver Cyp1b1 mRNA
Answer with a bare number; do not write a unit.

In the examples that follow, each entry is paired with its recorded REP Liver Cyp1b1 mRNA.
>  <molecule>
Clc1cc2oc3c(Cl)c(Cl)c(Cl)cc3c2cc1Cl

>  <REP Liver Cyp1b1 mRNA>
0.02

$$$$
>  <molecule>
Clc1ccc(-c2cc(Cl)c(Cl)c(Cl)c2Cl)cc1Cl

>  <REP Liver Cyp1b1 mRNA>
0.0004

$$$$

Return reported REP Liver Cyp1b1 mRNA; argument: Clc1cc2c(cc1Cl)Oc1cc(Cl)c(Cl)cc1O2 [TCDD, 2,3,7,8-tetrachlorodibenzodioxin, reference compound]
1

Can you handle Clc1cc2c(cc1Cl)Oc1c(cc(Cl)c(Cl)c1Cl)O2 next?
0.3

* * *

test system: Cyp1a2 mRNA in liver; experiment: Cyp1a2 gene expression in liver (real-time PCR); format: in vivo, female C57BL/6 mice; conditions: relative to TCDD; dose metric Syst liver (ng/g liver)
valueKind: REP Liver Cyp1a2 mRNA

In the examples that follow, each entry is paired with its recorded REP Liver Cyp1a2 mRNA.
>  <compound>
Clc1cc2oc3c(Cl)c(Cl)c(Cl)cc3c2cc1Cl

>  <testedTarget>
Cyp1a2 mRNA in liver

>  <observedResult>
0.04

$$$$
>  <compound>
Clc1cc2c(cc1Cl)Oc1cc(Cl)c(Cl)cc1O2 [TCDD, 2,3,7,8-tetrachlorodibenzodioxin, reference compound]

>  <testedTarget>
Cyp1a2 mRNA in liver

>  <observedResult>
1

$$$$
>  <compound>
Clc1ccc(-c2cc(Cl)c(Cl)cc2Cl)cc1Cl

>  <testedTarget>
Cyp1a2 mRNA in liver

>  <observedResult>
0.0003

$$$$
>  <compound>
Clc1cc2c(cc1Cl)Oc1c(cc(Cl)c(Cl)c1Cl)O2

>  <testedTarget>
Cyp1a2 mRNA in liver

>  <observedResult>
0.6

$$$$
>  <compound>
Clc1ccc(-c2cc(Cl)c(Cl)c(Cl)c2Cl)cc1Cl

>  <testedTarget>
Cyp1a2 mRNA in liver

>  <observedResult>
0.0006

$$$$

Pending compound:
Return reported REP Liver Cyp1a2 mRNA; argument: Clc1ccc(-c2cc(Cl)c(Cl)c(Cl)c2)cc1Cl
0.003
